assay: Pharmacokinetics in ICR mice after intravenous and intragastric administration; format: in vivo; settings: male, ICR, mouse, plasma, po, 5 mg/kg, ICR mice, PO 5 mg/kg, mean of 3 animals; read-out: AUC(0-t)
Mark label 1 for AUC(0-t) under 6000 ng·h/mL, label 0 if at or over.

smiles-repr | label-class
COc1ncc(-c2nc3c(n2C(C)C)[C@@]2(C(=O)Nc4cc(Cl)ccc42)N(c2cc(F)cc(Cl)c2)C3=O)c(OC)n1 | label 1
CCOc1cc(OC)c(-c2nc3c(n2C(C)C)[C@@]2(C(=O)Nc4cc(Cl)ccc42)N(c2cc(Cl)ccc2C)C3=O)cn1 | label 0
COc1nc(C2CC2)ncc1-c1nc2c(n1C(C)C)[C@@]1(C(=O)Nc3cc(Cl)ccc31)N(c1cc(Cl)cnc1C)C2=O | label 1
CCOc1cc(OC)c(-c2nc3c(n2C(C)C)[C@@]2(C(=O)Nc4cc(Cl)ccc42)N(c2cc(Cl)ccc2F)C3=O)cn1 | label 0
COc1cc(OC)c(-c2nc3c(n2C(C)C)[C@@]2(C(=O)Nc4cc(Cl)ccc42)N(c2cc(Cl)cnc2C)C3=O)cn1 | label 1
COc1cc(C(F)(F)F)ncc1-c1nc2c(n1C(C)C)[C@@]1(C(=O)Nc3cc(Cl)ccc31)N(c1cc(Cl)ccc1C)C2=O | label 0
COc1nc(N(C)C)ncc1-c1nc2c(n1C(C)C)[C@@]1(C(=O)Nc3cc(Cl)ccc31)N(c1cc(Cl)cnc1C)C2=O | label 0

* * *

Assay: Pharmacokinetics in ICR mice after intravenous and intragastric administration
Type: in vivo
Conditions: male, ICR, mouse, plasma, po, 5 mg/kg, ICR mice, PO 5 mg/kg, mean of 3 animals; read-out: Cmax
Method: Experimental Example 3 Determination of the Pharmacokinetics of the Mdm2 Inhibitors of the Present Invention in Mice […] The collected plasma was stored at −80° C. before analysis. The plasma sample was analyzed by LC-MS/MS, and the sample was pretreated by protein precipitation method. […] The lowest quantification limit was 1 ng/mL. […]
Outcome label depends on Cmax relative to 2000 ng/mL: at/above gives rule met, below gives rule not met.

molecule | label-class
CCOc1cc(OC)c(-c2nc3c(n2C(C)C)[C@@]2(C(=O)Nc4cc(Cl)ccc42)N(c2cc(Cl)ccc2C)C3=O)cn1 [Example S-72] | rule met
COc1nc(OCCF)ncc1-c1nc2c(n1C(C)C)[C@@]1(C(=O)Nc3cc(Cl)ccc31)N(c1cc(Cl)ccc1C)C2=O [Example S-140] | rule met
CCOc1ncc(-c2nc3c(n2C(C)C)[C@@]2(C(=O)Nc4cc(Cl)ccc42)N(c2cc(Cl)cnc2C)C3=O)c(OC)n1 [Example S-134] | rule met
COc1ccc(-c2nc3c(n2C(C)C)[C@@]2(C(=O)Nc4cc(Cl)ccc42)N(c2cc(Cl)cnc2C)C3=O)c(OC)c1 [Example S-61] | rule met
COc1nc(C2CC2)ncc1-c1nc2c(n1C(C)C)[C@@]1(C(=O)Nc3cc(Cl)ccc31)N(c1cc(Cl)cnc1C)C2=O [Example S-159] | rule not met
COc1cc(OC)c(-c2nc3c(n2C(C)C)[C@@]2(C(=O)Nc4cc(Cl)ccc42)N(c2cc(Cl)ccc2F)C3=O)cn1 [Example S-133] | rule not met

* * *

Listed here: items and their measured pIC50.
molecular target: MDM2 (Homo sapiens); construct: made in house; experiment: Inhibition test of MDM2-P53 (GST-MDM2, Biotin-P53, Anti-GST-Tb, SA-XL665); assay type: binding
pIC50: −log10 of the molar value.
measurement-kind: pIC50

smiles-repr | target-system | numeric-value
COc1nc(C)ncc1-c1nc2c(n1C(C)C)[C@@]1(C(=O)Nc3cc(Cl)ccc31)N(c1cc(Cl)ccc1C)C2=O | MDM2 (Homo sapiens) | 8.45
CCOc1ccc(-c2nc3c(n2C(C)C)[C@]2(C(=O)Nc4cc(Cl)ccc42)N(c2cc(Cl)ccc2F)C3=O)c(OC)c1 | MDM2 (Homo sapiens) | 6.08
COc1cc(OCC(F)F)ncc1-c1nc2c(n1C(C)C)[C@]1(C(=O)Nc3cc(Cl)ccc31)N(c1cc(Cl)ccc1C)C2=O | MDM2 (Homo sapiens) | 7.51

* * *

Listed here: items and their measured Cmax.
assay: Pharmacokinetics in ICR mice after intravenous and intragastric administration; format: in vivo; details: male, ICR, mouse, plasma, iv, 2 mg/kg, IV 2 mg/kg, ICR mice, Mean; read-out: Cmax
measurement-kind: Cmax (ng/mL)

compound | unit-abbreviation | numeric-value
COc1ncc(-c2nc3c(n2C(C)C)[C@H](c2ccc(Cl)cc2)N(c2cc(Cl)cn(C)c2=O)C3=O)c(OC)n1 [HDM201, reference compound] | ng/mL | 550
COc1ncc(-c2nc3c(n2C(C)C)[C@@]2(C(=O)Nc4cc(Cl)ccc42)N(c2cc(Cl)ccc2C)C3=O)c(OC)n1 | ng/mL | 475
COc1ncc(-c2nc3c(n2C(C)C)[C@@]2(C(=O)Nc4cc(Cl)ccc42)N(c2cccc(Cl)c2)C3=O)c(OC)n1 | ng/mL | 325

* * *

Listed here: items and their measured AUC(0-inf).
assay: Pharmacokinetics in ICR mice after intravenous and intragastric administration; type: in vivo; conditions: male, ICR, mouse, plasma, po, 5 mg/kg, ICR mice, PO 5 mg/kg, mean of 3 animals

smiles-repr | AUC(0-inf)
COc1nc(OCCF)ncc1-c1nc2c(n1C(C)C)[C@@]1(C(=O)Nc3cc(Cl)ccc31)N(c1cc(Cl)ccc1C)C2=O | 26100 ng·h/mL
COc1nc(C2CC2)ncc1-c1nc2c(n1C(C)C)[C@@]1(C(=O)Nc3cc(Cl)ccc31)N(c1cc(Cl)ccc1C)C2=O | 41600 ng·h/mL
COc1ncc(-c2nc3c(n2C(C)C)[C@@]2(C(=O)Nc4cc(Cl)ccc42)N(c2cc(F)cc(Cl)c2)C3=O)c(OC)n1 | 5420 ng·h/mL

* * *

Listed here: items and their measured MRT inf.
assay: Pharmacokinetics in ICR mice after intravenous and intragastric administration; assay type: in vivo; details: male, ICR, mouse, plasma, iv, 2 mg/kg, ICR mice, IV 2 mg/kg, individual animals 301-303; read-out: MRT(0-∞)
measurement-kind: MRT inf (h)

smiles-repr | unit-abbreviation | numeric-value
CCOc1ncc(-c2nc3c(n2C(C)C)[C@@]2(C(=O)Nc4cc(Cl)ccc42)N(c2cc(Cl)cnc2C)C3=O)c(OC)n1 | h | 1.23
COc1cc(OC(C)C)ncc1-c1nc2c(n1C(C)C)[C@@]1(C(=O)Nc3cc(Cl)ccc31)N(c1cc(Cl)cnc1C)C2=O | h | 2.06
COc1nc(C2CC2)ncc1-c1nc2c(n1C(C)C)[C@@]1(C(=O)Nc3cc(Cl)ccc31)N(c1cc(Cl)cnc1C)C2=O | h | 1.45
COc1nc(N(C)C)ncc1-c1nc2c(n1C(C)C)[C@@]1(C(=O)Nc3cc(Cl)ccc31)N(c1cc(Cl)cnc1C)C2=O | h | 2.09
COc1cc(C(F)(F)F)ncc1-c1nc2c(n1C(C)C)[C@@]1(C(=O)Nc3cc(Cl)ccc31)N(c1cc(Cl)ccc1C)C2=O | h | 4.32

* * *

system: human osteosarcoma cell line SJSA-1; test: Inhibition of proliferation of human osteosarcoma cell line SJSA-1 (DAPI staining, In Cell Analyzer); conditions: Homo sapiens, SJSA-1, 72 h, read-out: IC50 (nM), inhibitory activity on proliferation of human osteosarcoma cell line SJSA-1, SJSA-1, incubated 72 h

smiles-repr | IC50, nM
COc1cc(N)c(C)cc1-c1nc2c(n1C(C)C)[C@]1(C(=O)Nc3cc(Cl)ccc31)N(c1cc(Cl)ccc1C)C2=O | 1840
Cc1ccc(Cl)cc1N1C(=O)c2nc(-c3ccccc3OC(F)(F)F)n(C(C)C)c2[C@@]12C(=O)Nc1cc(Cl)ccc12 | 1580
COc1cc(N)c(F)cc1-c1nc2c(n1C(C)C)[C@]1(C(=O)Nc3cc(Cl)ccc31)N(c1cc(Cl)ccc1C)C2=O | 3040
COc1cc(C2CC2)ccc1-c1nc2c(n1C(C)C)[C@@]1(C(=O)Nc3cc(Cl)ccc31)N(c1cc(Cl)cnc1C)C2=O | 28.2
COc1cc(N(C)C)ncc1-c1nc2c(n1C(C)C)[C@@]1(C(=O)Nc3cc(Cl)ccc31)N(c1cc(Cl)cnc1C)C2=O | 14.6
COc1nc(OC(C)C)ncc1-c1nc2c(n1C(C)C)[C@@]1(C(=O)Nc3cc(Cl)ccc31)N(c1cc(Cl)cnc1C)C2=O | 108

* * *

biological target: MDM2 (Homo sapiens, UniProt Q00987)
Sequence (Q00987 whole entry): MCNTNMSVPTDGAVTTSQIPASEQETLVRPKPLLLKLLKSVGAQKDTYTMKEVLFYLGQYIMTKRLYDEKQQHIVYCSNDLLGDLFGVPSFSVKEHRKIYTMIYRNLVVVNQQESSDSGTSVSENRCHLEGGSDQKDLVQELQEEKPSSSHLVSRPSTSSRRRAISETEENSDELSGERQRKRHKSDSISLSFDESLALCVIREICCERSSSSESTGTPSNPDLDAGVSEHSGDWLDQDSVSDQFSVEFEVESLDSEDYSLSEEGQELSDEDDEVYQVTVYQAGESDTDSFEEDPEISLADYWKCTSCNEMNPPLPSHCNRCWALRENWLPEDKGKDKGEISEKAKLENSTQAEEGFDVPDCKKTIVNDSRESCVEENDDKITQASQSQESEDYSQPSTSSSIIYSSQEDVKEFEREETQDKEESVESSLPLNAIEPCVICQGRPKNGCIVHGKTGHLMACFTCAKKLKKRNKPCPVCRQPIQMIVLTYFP
pIC50: −log10 of the molar value.
measurement-kind: pIC50

smiles-repr | numeric-value
COc1cc(OC)c(-c2nc3c(n2C(C)C)[C@]2(C(=O)Nc4cc(Cl)ccc42)N(c2cccc(Cl)c2)C3=O)cn1 | 6.57
COc1ncc(-c2nc3c(n2C(C)C)[C@]2(C(=O)Nc4cc(Cl)ccc42)N(c2cc(Cl)ccc2F)C3=O)c(OC)n1 | 7.29
CCOc1ccc(-c2nc3c(n2C(C)C)[C@]2(C(=O)Nc4cc(Cl)ccc42)N(c2cc(Cl)ccc2C)C3=O)c(OC)c1 | 6.40
COc1cc(C(F)(F)F)ccc1-c1nc2c(n1C(C)C)[C@@]1(C(=O)Nc3cc(Cl)ccc31)N(c1cc(Cl)cnc1C)C2=O | 8.42
COc1nc(N2CCC2)ncc1-c1nc2c(n1C(C)C)[C@]1(C(=O)Nc3cc(Cl)ccc31)N(c1cc(Cl)ccc1C)C2=O | 6.63
COc1cc(C#N)ccc1-c1nc2c(n1C(C)C)[C@@]1(C(=O)Nc3cc(Cl)ccc31)N(c1cc(Cl)ccc1C)C2=O | 8.45
